- System: CP260
- assay name: qHTS profiling for inhibitors of Plasmodium falciparum proliferation (AID 504749); further: nearly all actives have a fitted effect of over 60% in size
- protocol conditions: P. falciparum in erythrocytes, SYBR Green DNA, 72 h; series mostly up to 28.7 µM
Records with an inconclusive call do not appear. The source made the active and inactive calls. The call rests on the fitted dose curve; in most records, active means well fitted inhibition curve with a large enough effect; inconclusive means small, poorly fitted or top-dose-only effect; inactive means flat fitted curve, though single readings scatter.
Answer with one of the outcomes given here: YES (active), NO (inactive)

{"columns": ["compound", "group label"],
 "data": [
  ["CC1(C)C2CC[C@]1(C)[C@@H](O)C2", "NO"]
]}

Prompt line: Which outcome did this test record for the compound C[C@@H]1C(SC2Cn3cnc[n+]3C2)=C(C(=O)[O-])N2C(=O)[C@H]([C@@H](C)O)[C@@H]12 (stereo partly specified) ?
Response line: NO

Prompt line: Entry OCC1OC(O)C(O)C(O)C1O (stereo unspecified) : call = ?
Response line: NO

Prompt line: Dear colleague, could you share the recorded outcome for C[C@]12C=CC(=O)N[C@@H]1CC[C@@H]1C2CC[C@]2(C)C(C(=O)Nc3cc(C(F)(F)F)ccc3C(F)(F)F)CC[C@@H]12 (stereo partly specified) when you have a moment?
Response line: YES

Prompt line: For CC(=O)OCC(=O)[C@@]1(O)CCC2C3CCC4=CC(=O)C=CC4(C)C3C(O)C[C@]21C (stereo partly specified) , what call appears in the results of this test?
Response line: NO

Prompt line: Please let me know the test result on file for C/C=C1/NN(CCCN2CCN(c3cccc(Cl)c3)CC2)C(=O)N1CCOc1ccccc1 .
Response line: NO

Prompt line: Any idea what this test logged for C[C@H](CN1c2ccccc2Sc2cccnc21)N(C)C ?
Response line: YES

Prompt line: Check the results log: what was the call for Cc1cc(O)c2c(c1)OC1(C)CCC3C(C)(C)CCCC34COC2C14 (stereo unspecified) ?
Response line: NO

Prompt line: Could you kindly confirm the outcome this assay logged for Cc1cn([C@H]2CC(F)[C@@H](CO)O2)c(=O)[nH]c1=O (stereo partly specified) ?
Response line: NO

Prompt line: Dear all, I need the recorded test outcome for NC[C@@H]1O[C@H](OC2[C@@H](CO)O[C@@H](OC3[C@H](O)[C@H](N)C[C@H](N)[C@H]3OC3O[C@H](CO)[C@@H](O)[C@H](O)[C@@H]3N)[C@H]2O)C(N)[C@H](O)[C@@H]1O (stereo partly specified) , thank you.
Response line: NO

Prompt line: Query: recorded result category for Nc1nc2[nH]cc(CCc3ccc(C(=O)NC(CCC(=O)O)C(=O)O)cc3)c2c(=O)[nH]1 (stereo unspecified) in this test
Response line: YES

Prompt line: Write down the call the test reported for this compound. Item: CC(=O)CC(c1ccccc1)C1C(=O)Oc2ccccc2C1=O (stereo unspecified)
Response line: NO

Prompt line: Recorded call for COc1ccc2cc1Oc1cc3c(cc1OC)CC[N+](C)(C)C3Cc1ccc(cc1)Oc1c(OC)c(OC)cc3c1C(C2)[N+](C)(C)CC3 (stereo unspecified) ?
Response line: NO

Prompt line: For C=NC(C(=O)NC1C(=O)N2C1SC(C)(C)C2C(=O)O)c1ccccc1 (stereo unspecified) , which call appears in the assay record?
Response line: NO

Prompt line: Please let me know the test result on file for CCCCCCCCCCCCCCCC(=O)OCC(COP(=O)(O)OCC[N+](C)(C)C)OC(=O)CCCCCCCCCCCCCCC (stereo unspecified) .
Response line: NO

Prompt line: Record lookup: outcome of this test for OCC1O[C@H](Oc2ccc(O)cc2)C(O)C(O)C1O (stereo partly specified) ?
Response line: NO

Prompt line: Could you please tell me the result logged for C[N+]12CCCC[C@@H]1CCC(=C(c1cccs1)c1cccs1)C2 (stereo partly specified) in this assay?
Response line: YES

Prompt line: Could you please tell me the result logged for C[C@]12CC[C@@H]3c4ccc(O)cc4CC[C@H]3[C@@H]1CCC2OC(=O)CCC1CCCC1 (stereo partly specified) in this assay?
Response line: NO

Prompt line: Short answer needed: outcome of this test for NC(=O)C1CC2(NC(=O)NC2=O)c2cc(F)ccc2O1 (stereo unspecified) ?
Response line: NO

Prompt line: Dear colleague, could you share the recorded outcome for Nc1nc(/C(=C/CC(=O)O)C(=O)NC2C(=O)N3C(C(=O)O)=CCSC23)cs1 (stereo unspecified) when you have a moment?
Response line: NO

Prompt line: Assay result, entry NC(C(=O)O)c1ccc(O)cc1 (stereo unspecified) — outcome?
Response line: NO

Prompt line: Kindly provide the recorded test outcome for the following compound: CC(=O)OC1C([N+]2(C)CCCCC2)C[C@H]2C3CC[C@H]4C[C@H](OC(C)=O)C([N+]5(C)CCCCC5)CC4(C)C3CCC12C (stereo partly specified)
Response line: NO

###

- System: ECU
- assay name: qHTS profiling for inhibitors of Plasmodium falciparum proliferation (AID 504749); further: nearly all actives have a fitted effect of over 60% in size; further: potency means the concentration at half of the fitted maximal effect
- protocol conditions: P. falciparum in erythrocytes, SYBR Green DNA, 72 h; series mostly up to 28.7 µM
Inconclusive results are not listed. The source made the active and inactive calls. Calls follow the shape of the dose curve; as a rule, active = well fitted inhibition curve with a large enough effect; inconclusive = small, poorly fitted or top-dose-only effect; inactive = flat fitted curve, though single readings scatter.
readout label: Potency

// solved cases for Potency follow
{"columns": ["compound", "Potency"],
 "data": [
  ["CC1=C(C/C=C(\\C)CCCC(C)CCCC(C)CCCC(C)C)C(=O)c2ccccc2C1=O (configuration not stated)", "inactive"],
  ["C#C[C@]1(O)CC[C@H]2[C@H]3[C@H](CC[C@@]21C)C1=C(CC(=O)CC1)C[C@@H]3C", "inactive"],
  ["CC(C)(C)NC[C@H](O)CSc1nc(-c2ccc(C(N)=O)s2)cs1", "inactive"],
  ["OCC(O)C(O)C(O)C(O)CO (configuration not stated)", "inactive"],
  ["CC(O)C(N)C(=O)O (configuration not stated)", "inactive"],
  ["CC(=O)N[C@H]1[C@H](O[C@@H]2c3ccc(c(Cl)c3)Oc3cc4cc(c3O[C@@H]3O[C@H](CO)[C@@H](O)[C@H](O)C3C)Oc3ccc(cc3Cl)C[C@H]3NC(=O)[C@@H](N)c5ccc(O)c(c5)Oc5cc(O)cc(c5)[C@H](NC3=O)C(=O)N[C@H]4C(=O)N[C@H]3C(=O)N[C@@H]2C(=O)N[C@@H](C(=O)O)c2cc(O)cc(O[C@H]4O[C@H](CO)[C@@H](O)C(O)[C@@H]4O)c2-c2cc3ccc2O)O[C@H](CO)[C@@H](O)[C@@H]1O (some centres not stated)", "inactive"],
  ["C[N+]12CCCC[C@@H]1CCC(=C(c1cccs1)c1cccs1)C2 (some centres not stated)", "1000 nM (active)"],
  ["CCCC[C@H]1C(=O)N(c2ccccc2)N(c2ccc(O)cc2)C1=O", "inactive"],
  ["O=[N+]([O-])O[C@H]1CO[C@H]2[C@@H]1OC[C@H]2O", "inactive"],
  ["O=C(O)CC(O)CC(O)/C=C/c1c(C2CC2)nc2ccccc2c1-c1ccc(F)cc1 (configuration not stated)", "inactive"]
]}

Okay, now this compound:
Prompt line: Retrieve Potency measured for C[C@@H]1C(SC2Cn3cnc[n+]3C2)=C(C(=O)[O-])N2C(=O)[C@H]([C@@H](C)O)[C@@H]12 (some centres not stated) and print it.
Response line: inactive

###

- System: PAD
- assay name: qHTS profiling for inhibitors of Plasmodium falciparum proliferation (AID 504749); further: nearly all actives have a fitted effect of over 60% in size
- protocol conditions: P. falciparum in erythrocytes, SYBR Green DNA, 72 h; series mostly up to 28.7 µM
Inconclusive results are not listed. The source made the active and inactive calls. The call rests on the fitted dose curve; in most records, active means well fitted inhibition curve with a large enough effect; inconclusive means small, poorly fitted or top-dose-only effect; inactive means flat fitted curve, though single readings scatter.
// allowed return values: active, inactive

{"columns": ["compound", "group label"],
 "data": [
  ["COC(=O)C1[C@@H](OC)C(OC(=O)COc2ccc(OC)cc2)C[C@@H]2CN3CCc4c([nH]c5cc(OC)ccc45)[C@H]3C[C@H]12 (some centres undefined)", "active"],
  ["C/C=C\\C[C@H](C)[C@H](O)[C@H]1C(=O)N[C@@H](CC)C(=O)N(C)CC(=O)N(C)[C@@H](CC(C)C)C(=O)N[C@@H](C(C)C)C(=O)N(C)[C@@H](CC(C)C)C(=O)N[C@@H](C)C(=O)N[C@@H](C)C(=O)N(C)[C@@H](CC(C)C)C(=O)N(C)[C@@H](CC(C)C)C(=O)N(C)[C@@H](C(C)C)C(=O)N1C", "active"],
  ["CCCCC/C(C=O)=C/c1ccccc1", "inactive"]
]}

Prompt line: Please let me know the test result on file for CC(C)(C)NC[C@H](O)CSc1nc(-c2ccc(C(N)=O)s2)cs1 .
Response line: inactive

Prompt line: GET /call?item= C=NC(C(=O)NC1C(=O)N2C1SC(C)(C)C2C(=O)O)c1ccccc1 (centres undefined) returns the recorded outcome of this test.
Response line: inactive

Prompt line: Could you check what this test reported for CCN(CC)CC(=O)Nc1c(C)cc(C)cc1C ?
Response line: inactive

Prompt line: Tell me the recorded outcome of this test for OCC(CO)NC1C[C@](O)(CO)[C@@H](O)[C@H](O)[C@H]1O (some centres undefined) .
Response line: inactive

Prompt line: I would be grateful if you could indicate the recorded call for NC(=O)c1ncn(C2OC(CO)C(O)C2O)c1N (centres undefined) .
Response line: inactive

Prompt line: Any idea what this test logged for Cc1cc2nc3c(=O)[nH]c(=O)nc-3n(CC(O)C(O)C(O)COP(=O)(O)O)c2cc1C (centres undefined) ?
Response line: inactive
